Reference for the values: ChEMBL document CHEMBL5724914

Conditions: human gut metagenome, 24 h, 2 µM; further: call rule not given here
readout-kind: Bacterial Biotransformation

1. CCN(CC)CCOC(=O)C1(C2CCCCC2)CCCCC1
Compound NOT metabolized
2. C#C[C@]1(OC(C)=O)CC[C@H]2[C@@H]3CCC4=C/C(=N/O)CC[C@@H]4[C@H]3CC[C@@]21CC [NORGESTIMATE]
Compound metabolized
3. CC(C)(C)NC(=O)[C@H]1CC[C@H]2[C@@H]3CC[C@H]4NC(=O)C=C[C@]4(C)[C@H]3CC[C@]12C [FINASTERIDE]
Compound metabolized
4. CCc1oc2ccccc2c1C(=O)c1cc(Br)c(O)c(Br)c1
Compound NOT metabolized
5. COC(=O)C(c1ccccc1)C1CCCCN1 (configuration not stated) [METHYLPHENIDATE]
Compound NOT metabolized
6. C=C[C@H]1CN2CC[C@H]1C[C@H]2[C@H](O)c1ccnc2ccc(OC)cc12.C=C[C@H]1CN2CC[C@H]1C[C@H]2[C@H](O)c1ccnc2ccc(OC)cc12.O.O.O=S(=O)(O)O [QUININE SULFATE]
Compound NOT metabolized

Continue with the next compound.
Exercise: Quickly give me recorded Bacterial Biotransformation for CCOC(=O)[C@H](CCc1ccccc1)N[C@@H](C)C(=O)N1Cc2ccccc2C[C@H]1C(=O)O
Key: Compound NOT metabolized
